Tested on: MCF7
Assay: Cytotoxicity against TrxR overexpressing human doxorubicin-resistant MCF7 cells after 48 hrs by MTT assay
Assay type: functional
Examples of compounds with documented GC50 follow.
Field format: number, assumed µM, no unit text.

Known results for compounds:
The compound COc1cc(/C=C/C(O)=C/C(=O)/C=C/c2ccc(CO)o2)ccc1O showed GC50 equal to 10.6

For reference, reported GC50 for COc1ccc(/C=C/C(=O)/C=C(O)/C=C/c2ccc(CO)o2)cc1 stands at 10

O=C(/C=C(O)/C=C/c1ccco1)/C=C/c1ccco1 yielded GC50 of 33.6

Please turn your attention to the following entry.
get_value(item= Cc1ccc(/C=C/C(=O)/C=C(O)/C=C/c2ccc(C)o2)o1 , readout=GC50) returns 48.5

// provenance: ChEMBL document CHEMBL1156727
